# System: Escherichia coli TOP10
# Experimental Details: shrunken log2 fold change of peptide-encoding DNA abundance (4.5 h post-induction vs induction); higher = less antimicrobial activity (less host growth inhibition)
# Cond: time post-induction: 4.5 h; library: site-saturation at positions 5, 18, 19, 20
Give measured shrunken log2 fold change for each item. Keep answers brief.
One number for each entry.

Quick batch: shrunken log2 fold change for everything below.
1. RRIRERPPRLPRPRPRPISWPRP
2. RRIRHRPPRLPRPRPRPKMRPRP
3. RRIRERPPRLPRPRPRPGYCPRP
4. RRIRWRPPRLPRPRPRPHTKPRP
5. RRIRRRPPRLPRPRPRPTTKPRP

1. -0.246
2. 0.312
3. -0.432
4. 0.0624
5. 0.0527

----------
# Tested on: Escherichia coli TOP10
# Experimental Details: shrunken log2 fold change of peptide-encoding DNA abundance (4.5 h post-induction vs induction); higher = less antimicrobial activity (less host growth inhibition)
# Cond: time post-induction: 4.5 h; library: site-saturation at positions 5, 18, 19, 20
Give measured shrunken log2 fold change for each item. Keep answers brief.
One number for each entry.

Worked examples follow.
sequence_entry=RRIRFRPPRLPRPRPRPLDHPRP result_value=-0.359
sequence_entry=RRIRSRPPRLPRPRPRPFMQPRP result_value=-0.638
sequence_entry=RRIRERPPRLPRPRPRPRGWPRP result_value=0.917
sequence_entry=RRIRHRPPRLPRPRPRPRNIPRP result_value=-0.326
sequence_entry=RRIRLRPPRLPRPRPRPELAPRP result_value=0.0176

Quick batch: shrunken log2 fold change for everything below.
1. RRIRPRPPRLPRPRPRPFAFPRP
2. RRIRTRPPRLPRPRPRPMFCPRP
3. RRIRWRPPRLPRPRPRPSILPRP
4. RRIRLRPPRLPRPRPRPVFAPRP
5. RRIRKRPPRLPRPRPRPPTVPRP
6. RRIRDRPPRLPRPRPRPKCLPRP
7. RRIRIRPPRLPRPRPRPIHRPRP
8. RRIRDRPPRLPRPRPRPSTLPRP

1: 0.00781; 2: -0.628; 3: -0.341; 4: 0.223; 5: 0.266; 6: 0.313; 7: -0.197; 8: -0.267

----------
# Tested on: Escherichia coli TOP10
# Experimental Details: shrunken log2 fold change of peptide-encoding DNA abundance (4.5 h post-induction vs induction); higher = less antimicrobial activity (less host growth inhibition)
# Cond: time post-induction: 4.5 h; library: site-saturation at positions 5, 18, 19, 20
Give measured shrunken log2 fold change for each item. Keep answers brief.

Worked examples follow.
sequence_entry=RRIRMRPPRLPRPRPRPCSNPRP result_value=0.0191
sequence_entry=RRIRTRPPRLPRPRPRPVHCPRP result_value=0.0307
sequence_entry=RRIRYRPPRLPRPRPRPETAPRP result_value=0.00332

Quick batch: shrunken log2 fold change for everything below.
1. RRIRFRPPRLPRPRPRPIDTPRP
2. RRIRARPPRLPRPRPRPPYIPRP
3. RRIRSRPPRLPRPRPRPRKLPRP
4. RRIRVRPPRLPRPRPRPTWDPRP

[-0.127, -0.38, 0.316, 0.178]

----------
# Test system: Escherichia coli TOP10
# Experimental Details: shrunken log2 fold change of peptide-encoding DNA abundance (4.5 h post-induction vs induction); higher = less antimicrobial activity (less host growth inhibition)
# Cond: time post-induction: 4.5 h; library: site-saturation at positions 5, 18, 19, 20
Give measured shrunken log2 fold change for each item. Keep answers brief.
One number for each entry.

Worked examples follow.
sequence_entry=RRIRQRPPRLPRPRPRPAEAPRP result_value=0.61
sequence_entry=RRIRYRPPRLPRPRPRPKVTPRP result_value=-0.114
sequence_entry=RRIRLRPPRLPRPRPRPPTHPRP result_value=0.147

Quick batch: shrunken log2 fold change for everything below.
1. RRIRYRPPRLPRPRPRPKRTPRP
2. RRIRKRPPRLPRPRPRPVTSPRP

1: -0.0162; 2: 0.0678

----------
# Test system: Escherichia coli TOP10
# Experimental Details: shrunken log2 fold change of peptide-encoding DNA abundance (4.5 h post-induction vs induction); higher = less antimicrobial activity (less host growth inhibition)
# Cond: time post-induction: 4.5 h; library: site-saturation at positions 5, 18, 19, 20
Each entry gets no (0) if its shrunken log2 fold change stays under 0.1, and yes (1) if its shrunken log2 fold change is 0.1 or above.

Sample answers from the record:
sequence_entry=RRIRHRPPRLPRPRPRPRCDPRP category_label="yes (1)"
sequence_entry=RRIRPRPPRLPRPRPRPKWIPRP category_label="no (0)"
sequence_entry=RRIRLRPPRLPRPRPRPDMQPRP category_label="no (0)"
sequence_entry=RRIRNRPPRLPRPRPRPKYWPRP category_label="no (0)"
sequence_entry=RRIRARPPRLPRPRPRPSWRPRP category_label="yes (1)"

Entry RRIRPRPPRLPRPRPRPSYSPRP : is its shrunken log2 fold change no less than 0.1?
no (0)

Entry RRIRRRPPRLPRPRPRPIVEPRP : is its shrunken log2 fold change no less than 0.1?
yes (1)

Entry RRIRERPPRLPRPRPRPETIPRP : is its shrunken log2 fold change no less than 0.1?
no (0)

----------
# Test system: Escherichia coli TOP10
# Experimental Details: shrunken log2 fold change of peptide-encoding DNA abundance (4.5 h post-induction vs induction); higher = less antimicrobial activity (less host growth inhibition)
# Cond: time post-induction: 4.5 h; library: site-saturation at positions 5, 18, 19, 20
Reported Metric: shrunken log2 fold change
One number for each entry.

Worked examples follow.
sequence_entry=RRIRDRPPRLPRPRPRPPSFPRP reported_metric="shrunken log2 fold change" result_value=0.155
sequence_entry=RRIRYRPPRLPRPRPRPWFLPRP reported_metric="shrunken log2 fold change" result_value=-1.18
sequence_entry=RRIRIRPPRLPRPRPRPLMIPRP reported_metric="shrunken log2 fold change" result_value=-0.807
sequence_entry=RRIRHRPPRLPRPRPRPLIKPRP reported_metric="shrunken log2 fold change" result_value=-0.721

Quick batch: shrunken log2 fold change for everything below.
1. RRIRARPPRLPRPRPRPIKDPRP
2. RRIRERPPRLPRPRPRPAKRPRP

1. 0.0786
2. 0.0249

Quick batch: shrunken log2 fold change for everything below.
1. RRIRMRPPRLPRPRPRPAEAPRP
2. RRIRMRPPRLPRPRPRPKNEPRP
3. RRIRARPPRLPRPRPRPRRCPRP

[0.917, 0.881, 0.519]

----------
# Tested on: Escherichia coli TOP10
# Experimental Details: shrunken log2 fold change of peptide-encoding DNA abundance (4.5 h post-induction vs induction); higher = less antimicrobial activity (less host growth inhibition)
# Cond: time post-induction: 4.5 h; library: site-saturation at positions 5, 18, 19, 20
Reported Metric: shrunken log2 fold change
Give bare numbers.

Quick batch: shrunken log2 fold change for everything below.
1. RRIRDRPPRLPRPRPRPSYTPRP
2. RRIRYRPPRLPRPRPRPWRIPRP
3. RRIRQRPPRLPRPRPRPSIAPRP

1. -0.302
2. -0.297
3. -0.00998

Would you mind telling me what shrunken log2 fold change value was observed for RRIRNRPPRLPRPRPRPWLEPRP ?
-0.00992

----------
# System: Escherichia coli TOP10
# Experimental Details: shrunken log2 fold change of peptide-encoding DNA abundance (4.5 h post-induction vs induction); higher = less antimicrobial activity (less host growth inhibition)
# Cond: time post-induction: 4.5 h; library: site-saturation at positions 5, 18, 19, 20
Reported Metric: shrunken log2 fold change
Give bare numbers.

Worked examples follow.
sequence_entry=RRIRMRPPRLPRPRPRPTATPRP result_value=3.59
sequence_entry=RRIRCRPPRLPRPRPRPECIPRP result_value=0.0623
sequence_entry=RRIRMRPPRLPRPRPRPFYWPRP result_value=0.086

Quick batch: shrunken log2 fold change for everything below.
1. RRIRARPPRLPRPRPRPMSYPRP
2. RRIRFRPPRLPRPRPRPMQCPRP
3. RRIRNRPPRLPRPRPRPQWVPRP
4. RRIRHRPPRLPRPRPRPSFEPRP
5. RRIRDRPPRLPRPRPRPQTTPRP

[0.163, 0.188, 0.00681, -0.358, 0.0462]

Quick batch: shrunken log2 fold change for everything below.
1. RRIRPRPPRLPRPRPRPMATPRP
2. RRIRARPPRLPRPRPRPWPEPRP

[0.323, 0.245]

----------
# Tested on: Escherichia coli TOP10;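 note: peptides expressed intracellularly from a pBAD plasmid library in pooled LB shake-flask culture, induced with 0.3% L-arabinose, DNA abundance read by NGS, three biological replicates, DESeq2 with apeglm shrinkage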
# Experimental Details: shrunken log2 fold change of peptide-encoding DNA abundance (4.5 h post-induction vs induction); higher = less antimicrobial activity (less host growth inhibition)
# Cond: time post-induction: 4.5 h; library: site-saturation at positions 5, 18, 19, 20
Reported Metric: shrunken log2 fold change
Give bare numbers.

Worked examples follow.
sequence_entry=RRIRIRPPRLPRPRPRPRQHPRP reported_metric="shrunken log2 fold change" result_value=-0.199
sequence_entry=RRIRARPPRLPRPRPRPIQDPRP reported_metric="shrunken log2 fold change" result_value=0.0826
sequence_entry=RRIRQRPPRLPRPRPRPRKAPRP reported_metric="shrunken log2 fold change" result_value=-0.0029
sequence_entry=RRIRLRPPRLPRPRPRPADRPRP reported_metric="shrunken log2 fold change" result_value=-0.0121
sequence_entry=RRIRCRPPRLPRPRPRPHEGPRP reported_metric="shrunken log2 fold change" result_value=-0.172

Quick batch: shrunken log2 fold change for everything below.
1. RRIRFRPPRLPRPRPRPKKMPRP
2. RRIRFRPPRLPRPRPRPRWLPRP
3. RRIRFRPPRLPRPRPRPSNIPRP

1: 0.153; 2: 0.269; 3: -0.864
